- ASSAY_EXPLANATION: Kinetic solubility
- Format: physicochemical
- EXPERIMENTAL_PARAMETERS: PBS buffer, 25 °C, pH 7.4, aqueous buffer, kinetic from dmso stock
EXPERIMENTAL_ENDPOINT: solubility at 2 h (µM)

{"COMPOUND": "C[C@H](Nc1ccc2c(c1)OCCn1cc(N3C(=O)OC[C@H]3C(F)F)nc1-2)C(N)=O [GDC-0077, reference compound]", "QUANTITY_UNIT": "µM", "solubility at 2 h": 357}
{"COMPOUND": "Cc1nc(NC(=O)N2CCC[C@H]2C(N)=O)sc1-c1ccnc(C(C)(C)C(F)(F)F)c1 [BYL719, reference compound]", "QUANTITY_UNIT": "µM", "solubility at 2 h": 49}
{"COMPOUND": "C=CC(=O)N1CCC(COCC(=O)N2CCN(c3nc(-c4cnc(N)nc4C(F)F)nc(N4CCOC[C@@H]4C)n3)CC2)CC1", "QUANTITY_UNIT": "µM", "solubility at 2 h": 357}
{"COMPOUND": "C=CC(=O)N1CCC(C(=O)NCC(=O)N2CCN(c3nc(-c4cnc(N)nc4C(F)F)nc(N4CCOCC4)n3)CC2)CC1", "QUANTITY_UNIT": "µM", "solubility at 2 h": 333}
{"COMPOUND": "C=CC(=O)N1CCC(C(=O)N(C)CC(=O)N2CCN(c3nc(-c4cnc(N)nc4C(F)F)nc(N4CCOCC4)n3)CC2)CC1", "QUANTITY_UNIT": "µM", "solubility at 2 h": 383}

(P) C=CC(=O)N1CCC[C@@H](n2nc(-c3ccc(Oc4ccccc4)cc3)c3c(N)ncnc32)C1 [Ibrutinib, reference compound]
(Q) C=CC(=O)N1CCC(CN(C)CC(=O)N2CCN(c3nc(-c4cnc(N)nc4C(F)F)nc(N4CCOCC4)n3)CC2)CC1
Qu. So which one has the bigger solubility at 2 h here, P or Q ? Please indicate the selected item by its label.
Ans. Q
(Q: 363 µM, P: 10 µM)

Hey, just so you know, these numbers are from paper PMC11575505.
